Measured values drawn from paper PMC1906764 for this set.

Assay: 35S-Cys pulse-chase, immunoprecipitation from COS-1 media
Conditions: glycan lost; control: wild type
measuredAttribute: expression_or_secretion

Value lookup for expression_or_secretion; key = palmitoyl protein thioesterase 1 (PPT1): S199A (protein) parent chain: MASPGCLWLLAVALLPWTCASRALQHLDPPAPLPLVIWHGMGDSCCNPLSMGAIKKMVEKKIPGIYVLSLEIGKTLMEDVENSFFLNVNSQVTTVCQALAKDPKLQQGYNAMGFSQGGQFLRAVAQRCPSPPMINLISVGGQHQGVFGLPRCPGESSHICDFIRKTLNAGAYSKVVQERLVQAEYWHDPIKEDVYRNHSIFLADINQERGINESYKKNLMALKKFVMVKFLNDSIVDPVDSEWFGFYRSGQAKETIPLQETSLYTQDRLGLKEMDNAGQLVFLATEGDHLQLSEEWFYAHIIPFLG
abolishes

Consider the protein palmitoyl protein thioesterase 1 (PPT1): S199A + S214A (protein) parent chain: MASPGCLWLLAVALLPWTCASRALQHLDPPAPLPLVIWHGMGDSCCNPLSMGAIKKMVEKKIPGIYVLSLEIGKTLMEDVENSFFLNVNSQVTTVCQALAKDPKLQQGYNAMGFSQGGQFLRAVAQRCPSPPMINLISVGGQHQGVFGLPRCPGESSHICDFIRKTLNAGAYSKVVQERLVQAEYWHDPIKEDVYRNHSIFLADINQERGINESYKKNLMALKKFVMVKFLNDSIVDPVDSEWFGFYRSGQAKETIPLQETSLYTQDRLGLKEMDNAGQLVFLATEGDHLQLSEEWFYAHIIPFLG and give its measured expression_or_secretion.
abolishes
